Test system: human SMAD7 mRNA
test-protocol: Antisense inhibition of human SMAD7 mRNA expression in Hep3B cells by 3-10-3 cEt gapmers, 10,000 nM, electroporation (Example 2)
Type: cell-based
condition-description: Hep3B cells, 10,000 nM antisense oligonucleotide, electroporation, approximately 24 hours, RT-PCR primer probe set RTS5062, relative to untreated control cells
Strand notation (5' to 3'): a small letter for the sugar, then the base; units joined by * are phosphorothioate-linked, units joined directly phosphodiester-linked; [ ] holds rarer units or linkages, { } end groups; capitals alone tell only the bases. k = constrained ethyl (cEt); [5mC] = 5-methylcytosine; d = 2'-deoxy (DNA)
Recorded % Inhibition for the following substances
API: value field is a number in %; no unit string.

1) 798892 (k[5mC]*k[5mC]*k[5mC]*d[5mC]*dA*dG*d[5mC]*d[5mC]*d[5mC]*dT*dT*d[5mC]*dA*k[5mC]*kA*kA; antisense) [compound 798892]: 39
2) 790847 (kT*k[5mC]*kT*dT*dA*d[5mC]*dA*dA*dA*dG*dA*dG*dT*kT*kA*kT; antisense) [compound 790847]: 24
3) 799880 (kT*k[5mC]*k[5mC]*dG*dA*dT*dG*dG*dA*dA*dA*dA*dG*k[5mC]*kT*k[5mC]; antisense) [compound 799880]: 39
4) 798856 (kT*kG*k[5mC]*dG*dG*dT*dT*dG*dT*dA*d[5mC]*dA*d[5mC]*k[5mC]*k[5mC]*kA; antisense) [compound 798856]: 67
5) 798871 (kA*kA*kA*dG*d[5mC]*d[5mC]*dT*dT*dG*dA*dT*dG*dG*kA*kG*kA; antisense) [compound 798871]: 20

Here is the next item to consider.
Challenge: Which measured % Inhibition value corresponds to 800069 (antisense k[5mC]*kA*kT*dG*dG*d[5mC]*dG*dG*dA*dA*dG*dA*dT*kG*kG*kG) [compound 800069] ?
Response given: 25

###

test-protocol: Plasma chemistry markers after subcutaneous administration in beagle dogs (Example 8)
condition-description: 30 mg/kg subcutaneous days 1, 3, 5, 8, 15, 22, 29, plasma at day 31
assay-metric: ALT

Here are 5 substances together with their reported answers.
1. 830025 (antisense TTTGTAAATCGAAAGC; 3-10-3 cEt gapmer, further chemistry not given here) [compound 830025]: 26 IU/L
2. 830037 (antisense CTATTGGCTGATCTGG; 3-10-3 cEt gapmer, further chemistry not given here) [compound 830037]: 3091 IU/L
3. 790615 (CCAATGAGAATGCTTC; 3-10-3 cEt gapmer, further chemistry not given here) [compound 790615]: 38 IU/L
4. 829994 (GGAGGCAGGGCCGCGA; 3-10-3 cEt gapmer, further chemistry not given here) [compound 829994]: 62 IU/L
5. 830121 (AGAATCAAGCCCTGGC; 3-10-3 cEt gapmer, further chemistry not given here) [compound 830121]: 1454 IU/L

Challenge: Which measured ALT value corresponds to 798781 (CGTAAGATTCACAGCA; 3-10-3 cEt gapmer, further chemistry not given here) [compound 798781] ?
Response given: 32 IU/L

###

Recorded % inhibition of SMAD7 mRNA expression for the following substances
Test system: human SMAD7 mRNA
test-protocol: Dose-dependent inhibition of human SMAD7 mRNA expression in Hep3B cells (Example 3, Study 1 and 2)
Assay type: cell-based
condition-description: 312.5 nM, electroporation, approximately 16 hours, Study 1, relative to untreated control cells
Procedure: The antisense oligonucleotides were tested in a series of experiments that had similar culture conditions as described below. Cells were plated at a density of 20,000 cells per well and transfected using electroporation with 0.31 μM, 1.25 μM, 5.00 μM, or 20.00 μM concentrations of antisense oligonucleotide, as specified in the Tables below. […] After a treatment period of approximately 16 hours, RNA was isolated from the cells and SMAD7 mRNA levels were measured by quantitative real-time PCR. […]
Strand notation (5' to 3'): a small letter for the sugar, then the base; units joined by * are phosphorothioate-linked, units joined directly phosphodiester-linked; [ ] holds rarer units or linkages, { } end groups; capitals alone tell only the bases. e = 2'-O-(2-methoxyethyl) (MOE); [5mC] = 5-methylcytosine; d = 2'-deoxy (DNA)
API: value field is a number in %; no unit string.

1) 771717 (antisense eT*e[5mC]*e[5mC]*e[5mC]*eA*dT*d[5mC]*dT*dA*dT*d[5mC]*dG*dA*dA*dT*e[5mC]*eA*e[5mC]*e[5mC]*e[5mC]) [compound 771717]: 2
2) 771670 (antisense eA*eG*eT*e[5mC]*e[5mC]*dT*dT*dT*d[5mC]*dT*d[5mC]*dT*d[5mC]*dT*d[5mC]*eA*eA*eA*eG*e[5mC]) [compound 771670]: 0
3) 771671 (antisense eT*e[5mC]*eA*eG*eG*dA*dG*dT*d[5mC]*d[5mC]*dT*dT*dT*d[5mC]*dT*e[5mC]*eT*e[5mC]*eT*e[5mC]) [compound 771671]: 0
4) 771821 (antisense eG*eT*eT*e[5mC]*e[5mC]*dT*dT*dA*dT*dA*dG*dA*dT*dT*dA*eT*e[5mC]*e[5mC]*eA*eA) [compound 771821]: 0
5) 771778 (antisense eT*eG*eA*eG*eT*dA*dA*dA*d[5mC]*dA*dA*dT*dA*d[5mC]*d[5mC]*e[5mC]*eT*e[5mC]*eA*eG) [compound 771778]: 48

Here is the next item to consider.
Challenge: Which measured % inhibition of SMAD7 mRNA expression value corresponds to 771742 (antisense eA*eG*eA*e[5mC]*eA*dG*dA*dT*d[5mC]*dT*d[5mC]*dT*dG*dA*dA*eG*eT*e[5mC]*eA*eG) [compound 771742] ?
Response given: 0

###

Recorded % Inhibition of SMAD7 mRNA for the following substances
Test system: human SMAD7 mRNA
test-protocol: Antisense inhibition of human SMAD7 mRNA expression in Hep3B cells by 5-10-5 MOE gapmers, single concentration, electroporation, RT-PCR (Example 1, Study 1 and 2)
Type: cell-based
condition-description: electroporation with 15,000 nM antisense oligonucleotide (Study 2), 5-10-5 MOE gapmers targeting SEQ ID NO: 1 and 2
Strand notation (5' to 3'): a small letter for the sugar, then the base; units joined by * are phosphorothioate-linked, units joined directly phosphodiester-linked; [ ] holds rarer units or linkages, { } end groups; capitals alone tell only the bases. e = 2'-O-(2-methoxyethyl) (MOE); [5mC] = 5-methylcytosine; d = 2'-deoxy (DNA)
Output should be the measured figure followed by the unit it is expressed in.

Here are 4 substances together with their reported answers.
1. 771576 (antisense eG*eG*eG*e[5mC]*eA*dG*dG*dA*dG*dA*dG*dA*d[5mC]*dA*d[5mC]*e[5mC]*eG*e[5mC]*eT*eT) [compound 771576]: 64%
2. 771632 (antisense eA*eA*eT*e[5mC]*e[5mC]*dT*dT*d[5mC]*dT*dT*dG*dG*dA*dG*dG*eG*eA*eA*eG*eG) [compound 771632]: 54%
3. 771832 (antisense eA*e[5mC]*e[5mC]*eT*eT*dT*d[5mC]*dA*d[5mC]*dG*dA*dA*d[5mC]*d[5mC]*dA*e[5mC]*eT*eT*eT*eT) [compound 771832]: 31%
4. 771808 (antisense e[5mC]*e[5mC]*e[5mC]*e[5mC]*eA*dA*dA*dG*dT*d[5mC]*d[5mC]*dA*d[5mC]*dG*d[5mC]*eT*e[5mC]*eA*eT*eG) [compound 771808]: 54%

Here is the next item to consider.
Challenge: Form field - read-out: % Inhibition of SMAD7 mRNA; system: human SMAD7 mRNA; submitted item: 771584 (antisense eA*eG*e[5mC]*e[5mC]*eG*dT*dG*d[5mC]*dT*d[5mC]*d[5mC]*dT*dG*dG*d[5mC]*eA*eG*e[5mC]*eT*eG) [compound 771584]
Response given: 26%

###

Test system: human SMAD7 mRNA
test-protocol: Antisense inhibition of human SMAD7 mRNA expression in Hep3B cells by 3-10-3 cEt gapmers, 10,000 nM, electroporation (Example 2)
Assay type: cell-based
condition-description: SMAD7 mRNA, Hep3B cells, 10,000 nM antisense oligonucleotide, electroporation, approximately 24 hours, primer probe set RTS5062, relative to untreated control cells
Strand notation (5' to 3'): a small letter for the sugar, then the base; units joined by * are phosphorothioate-linked, units joined directly phosphodiester-linked; [ ] holds rarer units or linkages, { } end groups; capitals alone tell only the bases. k = constrained ethyl (cEt); [5mC] = 5-methylcytosine; d = 2'-deoxy (DNA)
Recorded % Inhibition for the following substances
API: value field is a number in %; no unit string.

Here are 5 substances together with their reported answers.
1) 790609 (kG*kT*k[5mC]*dT*dA*dA*dA*d[5mC]*dA*dT*dG*d[5mC]*dT*k[5mC]*kA*kT; antisense) [compound 790609]: 40
2) 801128 (antisense kA*kG*kT*dA*dT*d[5mC]*d[5mC]*dA*dT*d[5mC]*dA*dA*d[5mC]*kT*kG*k[5mC]) [compound 801128]: 48
3) 829777 (antisense kG*kA*kG*d[5mC]*dG*dA*dG*dT*dA*dG*dG*dA*d[5mC]*kG*kA*kG) [compound 829777]: 37
4) 772568 (antisense kA*kG*k[5mC]*d[5mC]*dT*d[5mC]*dT*dT*dG*dA*d[5mC]*dT*dT*k[5mC]*k[5mC]*kG) [compound 772568]: 45
5) 829743 (antisense kA*k[5mC]*kG*d[5mC]*d[5mC]*dG*dG*dA*d[5mC]*dG*dA*dG*d[5mC]*kG*k[5mC]*kA) [compound 829743]: 25

Challenge: Which measured % Inhibition value corresponds to 829757 (antisense k[5mC]*k[5mC]*kG*dG*d[5mC]*d[5mC]*d[5mC]*d[5mC]*dA*dT*dG*d[5mC]*dG*k[5mC]*kT*k[5mC]) [compound 829757] ?
Response given: 15
